Biological target: T1, human IFNAR-1 protein (form not stated) (human, UniProt P17181 28-436, limits assumed)
T1 construct: bispecific ELISA
T1 sequence (looked up): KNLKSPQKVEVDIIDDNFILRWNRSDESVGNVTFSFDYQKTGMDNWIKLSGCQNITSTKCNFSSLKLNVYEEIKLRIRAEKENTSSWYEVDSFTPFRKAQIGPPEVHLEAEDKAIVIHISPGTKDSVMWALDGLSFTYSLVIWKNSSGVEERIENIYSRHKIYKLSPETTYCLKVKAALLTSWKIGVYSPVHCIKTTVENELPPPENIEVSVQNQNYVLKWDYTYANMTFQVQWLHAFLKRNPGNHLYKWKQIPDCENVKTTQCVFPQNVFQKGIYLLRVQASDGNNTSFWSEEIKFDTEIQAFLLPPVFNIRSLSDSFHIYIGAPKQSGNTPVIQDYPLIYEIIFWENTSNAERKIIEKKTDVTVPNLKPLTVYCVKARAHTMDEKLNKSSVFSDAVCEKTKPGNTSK
Test: affinity ranking of expressed humanized 485G10 IgGs (method not named)
RECORDED_ENDPOINT: koff (s⁻¹)
# value in s⁻¹; strip the unit string

Query: Dear colleague, please send me the reported koff for 485G10 humanized VH1 + VL1 (antibody, V domains shown, Humanized IgG expressed in HEK293; also called VH1 + VL1 (485G10)) VH: QVQLVQSGAEVKKPGASVKVSCKASGFNIKDYYIHWVRQAPGQGLEWMGRIDPEDAETKYAPKFQGRVTMTADTSISTAYMELSRLRSDDTVVYYCARYHGYWALDYWGQGTLVTVSS VL: DIQMTQSPSSLSASVGDRVTITCKTSQNVGTNVAWFQQKPGKAPKSLIYSTSYRYSGVPSRFSGSGSGTDFTLTISSLQPEDFATYYCHQYFSYPYTFGPGTKVDIK when you can.
Reply: 0.00103

Values compiled from patent US20200399381A1.
